Assay: TEAD-YAP interaction inhibition, primary screen, TEAD-YAP interaction inhibitor project, luminescence, HEK-TIYL cells (AID 1259422);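 further: 0% = median of test compound wells and 100% = reference inhibitor wells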
Conditions: TEAD-Gal4/YAP UAS-luciferase luminescence, at 9.12 µM
The whole screen tested about 640,000 compounds, of which about 9,300 (1.5%) were called active. No stated cut-off is given here; in the data, active means inhibition above about 32%; inactive means the rest. The entries come from a sample that favours actives as a whole.
Your answer must be one of the following: Yes (active), No (inactive)

Asked: Hi, sorry to bother you, what did the test record for O=C(NCCc1ccc(O)cc1)c1csc(Nc2ccc3ncccc3c2)n1 ?
Given back: No

Asked: Hi, sorry to bother you, what did the test record for Cc1c(C(=O)N2CCN(Cc3ccc4c(c3)OCO4)CC2)sc2ncn(CC(=O)Nc3cccc(C(F)(F)F)c3)c(=O)c12 ?
Given back: No

Asked: Hi, sorry to bother you, what did the test record for O=C(CN1CCN(Cc2nc(-c3ccco3)cs2)CC1)NCc1ccc2c(c1)OCO2 ?
Given back: No

Asked: Hi, sorry to bother you, what did the test record for COc1ccc(C(=O)N/N=C(\C)CC(=O)Nc2ccccc2)c(OC)c1 ?
Given back: No

Asked: Hi, sorry to bother you, what did the test record for Cc1nc2c(C(=O)NCc3ccc(F)cc3)cnn2c(C)c1Cc1cccc(Cl)c1 ?
Given back: No

Asked: Hi, sorry to bother you, what did the test record for N#Cc1c(-c2ccc(F)cc2)cc(C2CC2)nc1SCCN1C(=O)c2ccccc2C1=O ?
Given back: No

Asked: Hi, sorry to bother you, what did the test record for CCCNc1cc(CC)nc2c3c(C)cc(C)nc3nn12 ?
Given back: No

Asked: Hi, sorry to bother you, what did the test record for Cc1ccc(/C=N/NC(=O)c2ccc(Cl)cc2O)o1 ?
Given back: No

Asked: Hi, sorry to bother you, what did the test record for Nc1nc2c(s1)CCc1c-2no[n+]1[O-] ?
Given back: No

Asked: Hi, sorry to bother you, what did the test record for COc1ccc2nc(/C(C#N)=C\c3ccc(N4CCOCC4)cc3)[nH]c2c1 ?
Given back: No

Asked: Hi, sorry to bother you, what did the test record for COc1cc(C=Nc2ccc(NC(C)=O)cc2)ccc1OC(=O)c1cccs1 ?
Given back: No

Asked: Hi, sorry to bother you, what did the test record for Cc1cccc(C2c3[nH]c4ccccc4c3CCN2C(=O)Cn2nc(C)nc2C)n1 (stereo not drawn) ?
Given back: No

Asked: Hi, sorry to bother you, what did the test record for COc1cccc(NC(=O)Cn2c(=O)c(C(F)(F)F)nc3ccccc32)c1 ?
Given back: No

Asked: Hi, sorry to bother you, what did the test record for c1ccc2c(N3CCCCCC3)nc(CN3CCCCC3)nc2c1 ?
Given back: No

Asked: Hi, sorry to bother you, what did the test record for c1ccc(-c2nc(-c3ccncc3)[nH]c2-c2ccccc2)cc1 ?
Given back: No

Asked: Hi, sorry to bother you, what did the test record for O=C1/C(=C/c2ccc(-c3ccc([N+](=O)[O-])cc3)o2)C=C(c2ccccc2)N1c1cccc(Br)c1 ?
Given back: No

Asked: Hi, sorry to bother you, what did the test record for CCOC(=O)C1=C(C)N=c2s/c(=C\c3ccc(-c4ccc([N+](=O)[O-])cc4)o3)c(=O)n2C1c1cccs1 (stereo not drawn) ?
Given back: No

Asked: Hi, sorry to bother you, what did the test record for CC(=O)Nc1ccc(Nc2nc(N3CCC(N4CCOCC4)CC3)nc3c2ncn3-c2ccccc2)cc1 ?
Given back: No

Asked: Hi, sorry to bother you, what did the test record for CC1Nc2c(c(=O)oc3ccccc23)NC1=O (stereo not drawn) ?
Given back: No

Asked: Hi, sorry to bother you, what did the test record for c1ccc(Nc2nc(Nc3ncccn3)nc3c2ncn3-c2ccccc2)cc1 ?
Given back: No

Asked: Hi, sorry to bother you, what did the test record for COCc1cc(C(C)=O)ccc1OCC(=O)c1cc(C)n(-c2ccc(F)cc2)c1C ?
Given back: No

Asked: Hi, sorry to bother you, what did the test record for CCCCNC(=O)C(=O)NCC1COc2ccccc2O1 (stereo not drawn) ?
Given back: No

Asked: Hi, sorry to bother you, what did the test record for O=C(NNS(=O)(=O)c1cccc(Cl)c1Cl)C12CC3CC(CC(C3)C1)C2 ?
Given back: No

Asked: Hi, sorry to bother you, what did the test record for COc1cc(OC)cc(C(=O)N/N=C(\C)CC(=O)Nc2ccccc2-c2ccccc2)c1 ?
Given back: Yes

Asked: Hi, sorry to bother you, what did the test record for O=C(CN1CCOCC1)NCC1(c2ccccc2)CCCC1 ?
Given back: No

Asked: Hi, sorry to bother you, what did the test record for COc1ccc2cc(C)c3nn(CN4CCOCC4)c(=O)n3c2c1 ?
Given back: No

Asked: Hi, sorry to bother you, what did the test record for CC(=O)Nc1ccc(Nc2nc(Nc3cnccn3)nc3c2ncn3-c2ccccc2)cc1 ?
Given back: Yes

Asked: Hi, sorry to bother you, what did the test record for CCn1cc(C(=O)Nc2ccc(N3CCOCC3)cc2)c(=O)c2ccc(C)nc21 ?
Given back: No

* * *

Please go through the items and note down their inhibition.
Test: TEAD-YAP interaction inhibition, primary screen, TEAD-YAP interaction inhibitor project, luminescence, HEK-TIYL cells (AID 1259422);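 further: 0% = median of test compound wells and 100% = reference inhibitor wells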
Conditions: TEAD-Gal4/YAP UAS-luciferase luminescence, at 9.12 µM, stronger effect = higher value
Screen size: about 640,000 compounds; about 9,300 (1.5%) were called active. The full list was thinned out, with actives kept by preference.
Please give a number only; it is taken to be in %.

Asked: Identify measured inhibition corresponding to COc1ccc(-c2cc(C(F)(F)F)n3nc(C(=O)NCc4ccccc4Cl)cc3n2)cc1
Given back: -8.37

Asked: Identify measured inhibition corresponding to CC(C)(C)c1nc2ccccc2c2nn(CC(=O)N3CCNC(=O)C3(C)C)c(=O)n12
Given back: -10.6

Asked: Identify measured inhibition corresponding to Fc1ccc(CN2CCOCC2)cc1F
Given back: -5.29

Asked: Identify measured inhibition corresponding to Fc1cnc(Nc2ccc(Cn3ccnc3)cc2)nc1-c1cccc(N2CCOCC2)c1
Given back: 84.8

Asked: Identify measured inhibition corresponding to Cc1ccc2nc(-c3cccc(NC(=O)c4cc([N+](=O)[O-])ccc4Br)c3)oc2c1
Given back: 6.62

Asked: Identify measured inhibition corresponding to CCCOc1ccc(N2C(=O)CC(N(CCC34CC5CC(CC(C5)C3)C4)C(C)=O)C2=O)cc1 (stereo not drawn)
Given back: 1.87

Asked: Identify measured inhibition corresponding to Clc1ccc(-c2cc(NCCCn3ccnc3)ncn2)cc1
Given back: -76.3

Asked: Identify measured inhibition corresponding to CCCCSc1nc2sc3c(c2c(=O)n1-c1ccc(OC)cc1)CCCC3
Given back: -1.35

* * *

Test: TEAD-YAP interaction inhibition, primary screen, TEAD-YAP interaction inhibitor project, luminescence, HEK-TIYL cells (AID 1259422);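 further: 0% = median of test compound wells and 100% = reference inhibitor wells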
Conditions: TEAD-Gal4/YAP UAS-luciferase luminescence, at 9.12 µM, stronger effect = higher value
In all, about 640,000 compounds went through this assay and about 9,300 (1.5%) were called active. The sample as a whole holds a higher share of actives than the screen did.
QUANTITY_NAME: inhibition (%)
Please give a number only; it is taken to be in %.

Asked: Identify measured inhibition corresponding to CCCCOc1ccc(NC(=O)C(C)Oc2ccc(OC)cc2)cc1 (stereo not drawn)
Given back: 7.98

Asked: Identify measured inhibition corresponding to O=C(NNc1ccc([N+](=O)[O-])cc1[N+](=O)[O-])c1cc2ccccc2cc1O
Given back: 8.71

Asked: Identify measured inhibition corresponding to CC1CN(CCC(=O)N2CCCN(C3Cc4ccccc4C3)CC2)Cc2ccccc2O1 (stereo not drawn)
Given back: -10.5

* * *

Test: TEAD-YAP interaction inhibition, primary screen, TEAD-YAP interaction inhibitor project, luminescence, HEK-TIYL cells (AID 1259422);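 further: 0% = median of test compound wells and 100% = reference inhibitor wells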
Details: TEAD-Gal4/YAP UAS-luciferase luminescence, at 9.12 µM
Screen size: about 640,000 compounds; about 9,300 (1.5%) were called active. No stated cut-off is given here; in the data, active means inhibition above about 32%; inactive means the rest. For the sample, actives were picked, then their nearest neighbours and some compounds at random.
Your answer must be one of the following: active, inactive

Asked: Hi, sorry to bother you, what did the test record for Cc1nc2ccc(C(=O)OCC(=O)c3ccc([N+](=O)[O-])cc3)cc2nc1C ?
Given back: inactive

Asked: Hi, sorry to bother you, what did the test record for CCOc1ccc(C(=O)O/N=C(\N)c2ccc(OC)cc2)cc1OCC ?
Given back: inactive

Asked: Hi, sorry to bother you, what did the test record for O=C(c1cc(-c2ccncc2)nc2ccccc12)N1CCN(c2ccccc2)CC1 ?
Given back: active

Asked: Hi, sorry to bother you, what did the test record for C=CCOC(=O)N1CCC(C(=O)NC(c2ccc(F)cc2)c2ccccn2)CC1 (stereo not given) ?
Given back: inactive

Asked: Hi, sorry to bother you, what did the test record for COc1ccc(NC(=O)/C=C\c2cccc3ccccc23)c(OC)c1 ?
Given back: inactive

Asked: Hi, sorry to bother you, what did the test record for O=C(Nc1nc(-c2ccc(F)cc2)cs1)c1cc([N+](=O)[O-])ccc1Cl ?
Given back: active

Asked: Hi, sorry to bother you, what did the test record for Cc1c(Cl)cccc1N1C(=O)C2C3CCC(C3)C2C1=O (stereo not given) ?
Given back: inactive

Asked: Hi, sorry to bother you, what did the test record for CC(=O)c1ccc(NC(=O)/C=C/c2cccc([N+](=O)[O-])c2)cc1 ?
Given back: inactive

Asked: Hi, sorry to bother you, what did the test record for CC1(C2CCN(C(=O)c3ccc(N4CCCCC4)cc3)CC2)NC(=O)NC1=O (stereo not given) ?
Given back: inactive

Asked: Hi, sorry to bother you, what did the test record for CCCCCCn1c(NNC=O)nc2c1c(=O)[nH]c(=O)n2C ?
Given back: inactive

Asked: Hi, sorry to bother you, what did the test record for COc1ccccc1NC(=O)CSc1n[nH]c(C)n1 ?
Given back: inactive

Asked: Hi, sorry to bother you, what did the test record for COc1ccc(CSc2n[nH]c(C)n2)cc1Cl ?
Given back: active

Asked: Hi, sorry to bother you, what did the test record for CCN(CC)C(=O)c1sc(NC(=O)c2cccc(OC)c2)c(C(=O)OC(C)C)c1C ?
Given back: inactive

Asked: Hi, sorry to bother you, what did the test record for COc1ccccc1NC(=O)Nc1nnc(CSCc2ccc(F)cc2)s1 ?
Given back: inactive

Asked: Hi, sorry to bother you, what did the test record for CCN(CC)C(=O)C1CCCN(c2ncnc3c2cnn3-c2ccccc2)C1 (stereo not given) ?
Given back: active

Asked: Hi, sorry to bother you, what did the test record for CCOC(=O)c1c(NC(=O)CSc2nnc(CNC(=O)c3cc(OC)cc(OC)c3)n2-c2cccc(C)c2)sc2c1CCCC2 ?
Given back: inactive

Asked: Hi, sorry to bother you, what did the test record for Cc1cccc(C(=O)NCc2nnc(SCC(=O)N3N=C(c4cccs4)CC3c3ccc(F)cc3)n2C)c1 (stereo not given) ?
Given back: inactive

Asked: Hi, sorry to bother you, what did the test record for CN1CCN(c2ncnc3c2cnn3-c2ccc(Cl)c(Cl)c2)CC1 ?
Given back: active

Asked: Hi, sorry to bother you, what did the test record for O=C(c1cc(N2CCOCC2)nc2ccccc12)N1CCN(c2cccc(Cl)c2)CC1 ?
Given back: inactive

Asked: Hi, sorry to bother you, what did the test record for Cc1[nH]n(-c2ccc([N+](=O)[O-])cc2)c(=O)c1C=NCCN1CCN(C(=O)/C=C/c2ccccc2)CC1 ?
Given back: inactive

Asked: Hi, sorry to bother you, what did the test record for O=C(CCCn1c(=S)[nH]c2ccccc2c1=O)NCc1cccc(Cl)c1 ?
Given back: inactive

Asked: Hi, sorry to bother you, what did the test record for CCOC(=O)N1CCN(S(=O)(=O)c2ccc(C(=O)Nc3ccc(F)cc3F)cc2)CC1 ?
Given back: active

Asked: Hi, sorry to bother you, what did the test record for CCOc1cc(/C=C2/N=C(c3ccc(Cl)cc3)OC2=O)ccc1OCc1ccc(Cl)cc1 ?
Given back: inactive

Asked: Hi, sorry to bother you, what did the test record for C=CC(=O)Nc1ccc(OC)cc1OC ?
Given back: active

Asked: Hi, sorry to bother you, what did the test record for CCC(C)NC(=O)C(C(F)(F)F)(C(F)(F)F)C(F)(F)F (stereo not given) ?
Given back: inactive

Asked: Hi, sorry to bother you, what did the test record for CCOC(=O)N1CCC(NC(=O)C2CC23CCN(CC2CC=CCC2)CC3)CC1 (stereo not given) ?
Given back: inactive

Asked: Hi, sorry to bother you, what did the test record for CC(=O)Nc1ccc(NC(=O)c2cc3nc(C)ccc3o2)cc1 ?
Given back: inactive

Asked: Hi, sorry to bother you, what did the test record for COc1ccc(CNc2c(-c3ccccc3O)nc3cnccn23)cc1 ?
Given back: active

Asked: Hi, sorry to bother you, what did the test record for COC(=O)CNC(=O)CC1C(=O)NCCN1Cc1ccc(F)cc1 (stereo not given) ?
Given back: inactive

Asked: Hi, sorry to bother you, what did the test record for CCOC(=O)c1ccc(NC(=O)c2ccc(S(=O)(=O)N3CCN(C(=O)OCC)CC3)cc2)cc1 ?
Given back: inactive
